# System: Klebsiella pneumoniae Kp BM1
# Assay type: cell-based
# Settings: Kp BM1
Where a SMILES comes first, the peptide text is derived from it. Bridges are numbered along the chain shown (N, C = ends). [ ]: non-standard residue; d: D form. The star is where a group is joined. X62 = O=C(c1cc(Br)c(Br)s1)*; Dab = NCC[C@H](N)C(=O)O; Abu = CC[C@H](N)C(=O)O; Dap = NC[C@H](N)C(=O)O
Observed property: Minimum inhibitory concentration

INSERT INTO assay_data (molecule, observed_property, meas_value) VALUES
  ('CC[C@@H]1NC(=O)[C@@H](CC(C)C)NC(=O)[C@H](CCN)NC(=O)[C@@H](NC(=O)[C@H](CN)NC(=O)[C@@H](NC(=O)[C@H](CCN)NC(=O)c2cc(Br)c(Br)s2)[C@@H](C)O)CCNC(=O)[C@H]([C@@H](C)O)NC(=O)[C@H](CCN)NC(=O)[C@H](CCN)NC1=O [Compound 83] (X62-[Dab]T[Dap][Dab][Dab][dL][Abu][Dab][Dab]T; lactam 4-C)', 'Minimum inhibitory concentration', '<0.125 µg/mL');

---

# Tested on: Pseudomonas aeruginosa FADDI-PA022
# Type: cell-based
# Settings: P. aeruginosa FADDI-PA022; CAMHB broth microdilution
Where a SMILES comes first, the peptide text is derived from it. Bridges are numbered along the chain shown (N, C = ends). [ ]: non-standard residue; d: D form. The star is where a group is joined. Indazole3carbonyl = O=C(c1n[nH]c2ccccc12)*; X66 = O=C(c1c[nH]c(-c2ccccc2)n1)*; X14 = O=C(c1ccc(C(F)(F)F)cn1)*; X52 = O=C(c1nc2ccccc2s1)*; X48 = O=C(c1ccc(Cl)nc1)*; Dab = NCC[C@H](N)C(=O)O; Abu = CC[C@H](N)C(=O)O; Dap = NC[C@H](N)C(=O)O
Observed property: Minimum inhibitory concentration

INSERT INTO assay_data (compound, meas_value) VALUES
  ('CC[C@@H]1NC(=O)[C@@H](CC(C)C)NC(=O)[C@H](CCN)NC(=O)[C@@H](NC(=O)[C@H](CN)NC(=O)[C@@H](NC(=O)[C@H](CCN)NC(=O)c2c[nH]c(-c3ccccc3)n2)[C@@H](C)O)CCNC(=O)[C@H]([C@@H](C)O)NC(=O)[C@H](CCN)NC(=O)[C@H](CCN)NC1=O [Compound 82] (X66-[Dab]T[Dap][Dab][Dab][dL][Abu][Dab][Dab]T; lactam 4-C)', '0.5 mg/L'),
  ('CC[C@@H]1NC(=O)[C@@H](CC(C)C)NC(=O)[C@H](CCN)NC(=O)[C@@H](NC(=O)[C@H](CN)NC(=O)[C@@H](NC(=O)[C@H](CCN)NC(=O)c2ccc(Cl)nc2)[C@@H](C)O)CCNC(=O)[C@H]([C@@H](C)O)NC(=O)[C@H](CCN)NC(=O)[C@H](CCN)NC1=O [Compound 4] (X48-[Dab]T[Dap][Dab][Dab][dL][Abu][Dab][Dab]T; lactam 4-C)', '1 mg/L'),
  ('CC[C@@H]1NC(=O)[C@@H](CC(C)C)NC(=O)[C@H](CCN)NC(=O)[C@@H](NC(=O)[C@H](CN)NC(=O)[C@@H](NC(=O)[C@H](CCN)NC(=O)c2nc3ccccc3s2)[C@@H](C)O)CCNC(=O)[C@H]([C@@H](C)O)NC(=O)[C@H](CCN)NC(=O)[C@H](CCN)NC1=O [Compound 70] (X52-[Dab]T[Dap][Dab][Dab][dL][Abu][Dab][Dab]T; lactam 4-C)', '0.5 mg/L'),
  ('CC[C@@H]1NC(=O)[C@@H](CC(C)C)NC(=O)[C@H](CCN)NC(=O)[C@@H](NC(=O)[C@H](CN)NC(=O)[C@@H](NC(=O)[C@H](CCN)NC(=O)c2n[nH]c3ccccc23)[C@@H](C)O)CCNC(=O)[C@H]([C@@H](C)O)NC(=O)[C@H](CCN)NC(=O)[C@H](CCN)NC1=O [Compound 54] (Indazole3carbonyl-[Dab]T[Dap][Dab][Dab][dL][Abu][Dab][Dab]T; lactam 4-C)', '0.5 mg/L'),
  ('CC[C@@H]1NC(=O)[C@@H](CC(C)C)NC(=O)[C@H](CCN)NC(=O)[C@@H](NC(=O)[C@H](CN)NC(=O)[C@@H](NC(=O)[C@H](CCN)NC(=O)c2ccc(C(F)(F)F)cn2)[C@@H](C)O)CCNC(=O)[C@H]([C@@H](C)O)NC(=O)[C@H](CCN)NC(=O)[C@H](CCN)NC1=O [Compound 38] (X14-[Dab]T[Dap][Dab][Dab][dL][Abu][Dab][Dab]T; lactam 4-C)', '0.25 mg/L');

---

Each entry below carries its reported Minimum inhibitory concentration.
# System: Acinetobacter baumannii FADDI-AB030
# Protocol summary: microbe, parasite or virus in culture
# Type: cell-based
# Settings: FADDI-AB030
Where a SMILES comes first, the peptide text is derived from it. Bridges are numbered along the chain shown (N, C = ends). [ ]: non-standard residue; d: D form. The star is where a group is joined. Quinoline3carbonyl = O=C(c1cnc2ccccc2c1)*; X19 = O=C(c1ncc(C(F)(F)F)cc1Cl)*; X23 = O=C(c1cc2ccccc2[nH]1)*; X34 = O=C(c1cc(Br)c(Br)o1)*; X17 = O=C(c1ncc(Br)cc1Cl)*; X39 = O=C(c1noc2ccccc12)*; X50 = O=C(c1sc(Br)cc1Br)*; dNva = CCC[C@@H](N)C(=O)O; X29 = O=C(c1cc(Cl)ccn1)*; Dab = NCC[C@H](N)C(=O)O; X68 = O=C(c1coc(Br)c1)*; X70 = O=C(c1csc(Br)c1)*; Abu = CC[C@H](N)C(=O)O; Dap = NC[C@H](N)C(=O)O
Observed property: Minimum inhibitory concentration

INSERT INTO measurements (compound, observed_property, meas_value) VALUES
  ('CC[C@@H]1NC(=O)[C@@H](CC(C)C)NC(=O)[C@H](CCN)NC(=O)[C@@H](NC(=O)[C@H](CN)NC(=O)[C@@H](NC(=O)[C@H](CCN)NC(=O)c2noc3ccccc23)[C@@H](C)O)CCNC(=O)[C@H]([C@@H](C)O)NC(=O)[C@H](CCN)NC(=O)[C@H](CCN)NC1=O [Compound 75] (X39-[Dab]T[Dap][Dab][Dab][dL][Abu][Dab][Dab]T; lactam 4-C)', 'Minimum inhibitory concentration', '0.5 µg/mL'),
  ('CC[C@@H]1NC(=O)[C@@H](CC(C)C)NC(=O)[C@H](CCN)NC(=O)[C@@H](NC(=O)[C@H](CN)NC(=O)[C@@H](NC(=O)[C@H](CCN)NC(=O)c2cc(Cl)ccn2)[C@@H](C)O)CCNC(=O)[C@H]([C@@H](C)O)NC(=O)[C@H](CCN)NC(=O)[C@H](CCN)NC1=O [Compound 26] (X29-[Dab]T[Dap][Dab][Dab][dL][Abu][Dab][Dab]T; lactam 4-C)', 'Minimum inhibitory concentration', '0.5 µg/mL'),
  ('CC[C@@H]1NC(=O)[C@@H](CC(C)C)NC(=O)[C@H](CCN)NC(=O)[C@@H](NC(=O)[C@H](CN)NC(=O)[C@@H](NC(=O)[C@H](CCN)NC(=O)c2coc(Br)c2)[C@@H](C)O)CCNC(=O)[C@H]([C@@H](C)O)NC(=O)[C@H](CCN)NC(=O)[C@H](CCN)NC1=O [Compound 103] (X68-[Dab]T[Dap][Dab][Dab][dL][Abu][Dab][Dab]T; lactam 4-C)', 'Minimum inhibitory concentration', '1 µg/mL'),
  ('CC(C)C[C@H]1NC(=O)[C@H](CCN)NC(=O)[C@@H](NC(=O)[C@H](CN)NC(=O)[C@@H](NC(=O)[C@H](CCN)NC(=O)c2cc3ccccc3[nH]2)[C@@H](C)O)CCNC(=O)[C@H]([C@@H](C)O)NC(=O)[C@H](CCN)NC(=O)[C@H](CCN)NC(=O)[C@H]([C@@H](C)O)NC1=O [Compound 66] (X23-[Dab]T[Dap][Dab][Dab][dL]T[Dab][Dab]T; lactam 4-C)', 'Minimum inhibitory concentration', '1 µg/mL'),
  ('CCC[C@H]1NC(=O)[C@H](CCN)NC(=O)[C@@H](NC(=O)[C@H](CN)NC(=O)[C@@H](NC(=O)[C@H](CCN)NC(=O)c2cc(Cl)ccn2)[C@@H](C)O)CCNC(=O)[C@H]([C@@H](C)O)NC(=O)[C@H](CCN)NC(=O)[C@H](CCN)NC(=O)[C@H](CC)NC1=O [Compound 96] (X29-[Dab]T[Dap][Dab][Dab][dNva][Abu][Dab][Dab]T; lactam 4-C)', 'Minimum inhibitory concentration', '2 µg/mL'),
  ('CC[C@@H]1NC(=O)[C@@H](CC(C)C)NC(=O)[C@H](CCN)NC(=O)[C@@H](NC(=O)[C@H](CN)NC(=O)[C@@H](NC(=O)[C@H](CCN)NC(=O)c2cc(Br)c(Br)o2)[C@@H](C)O)CCNC(=O)[C@H]([C@@H](C)O)NC(=O)[C@H](CCN)NC(=O)[C@H](CCN)NC1=O [Compound 79] (X34-[Dab]T[Dap][Dab][Dab][dL][Abu][Dab][Dab]T; lactam 4-C)', 'Minimum inhibitory concentration', '0.25 µg/mL'),
  ('CC[C@@H]1NC(=O)[C@@H](CC(C)C)NC(=O)[C@H](CCN)NC(=O)[C@@H](NC(=O)[C@H](CN)NC(=O)[C@@H](NC(=O)[C@H](CCN)NC(=O)c2csc(Br)c2)[C@@H](C)O)CCNC(=O)[C@H]([C@@H](C)O)NC(=O)[C@H](CCN)NC(=O)[C@H](CCN)NC1=O [Compound 101] (X70-[Dab]T[Dap][Dab][Dab][dL][Abu][Dab][Dab]T; lactam 4-C)', 'Minimum inhibitory concentration', '0.5 µg/mL'),
  ('CC[C@@H]1NC(=O)[C@@H](CC(C)C)NC(=O)[C@H](CCN)NC(=O)[C@@H](NC(=O)[C@H](CN)NC(=O)[C@@H](NC(=O)[C@H](CCN)NC(=O)c2ncc(C(F)(F)F)cc2Cl)[C@@H](C)O)CCNC(=O)[C@H]([C@@H](C)O)NC(=O)[C@H](CCN)NC(=O)[C@H](CCN)NC1=O [Compound 35] (X19-[Dab]T[Dap][Dab][Dab][dL][Abu][Dab][Dab]T; lactam 4-C)', 'Minimum inhibitory concentration', '<0.125 µg/mL'),
  ('CC[C@@H]1NC(=O)[C@@H](CC(C)C)NC(=O)[C@H](CCN)NC(=O)[C@@H](NC(=O)[C@H](CN)NC(=O)[C@@H](NC(=O)[C@H](CCN)NC(=O)c2sc(Br)cc2Br)[C@@H](C)O)CCNC(=O)[C@H]([C@@H](C)O)NC(=O)[C@H](CCN)NC(=O)[C@H](CCN)NC1=O [Compound 85] (X50-[Dab]T[Dap][Dab][Dab][dL][Abu][Dab][Dab]T; lactam 4-C)', 'Minimum inhibitory concentration', '<0.125 µg/mL'),
  ('CC[C@@H]1NC(=O)[C@@H](CC(C)C)NC(=O)[C@H](CCN)NC(=O)[C@@H](NC(=O)[C@H](CN)NC(=O)[C@@H](NC(=O)[C@H](CCN)NC(=O)c2cnc3ccccc3c2)[C@@H](C)O)CCNC(=O)[C@H]([C@@H](C)O)NC(=O)[C@H](CCN)NC(=O)[C@H](CCN)NC1=O [Compound 52] (Quinoline3carbonyl-[Dab]T[Dap][Dab][Dab][dL][Abu][Dab][Dab]T; lactam 4-C)', 'Minimum inhibitory concentration', '0.5 µg/mL'),
  ('CC[C@@H]1NC(=O)[C@@H](CC(C)C)NC(=O)[C@H](CCN)NC(=O)[C@@H](NC(=O)[C@H](CN)NC(=O)[C@@H](NC(=O)[C@H](CCN)NC(=O)c2ncc(Br)cc2Cl)[C@@H](C)O)CCNC(=O)[C@H]([C@@H](C)O)NC(=O)[C@H](CCN)NC(=O)[C@H](CCN)NC1=O [Compound 33] (X17-[Dab]T[Dap][Dab][Dab][dL][Abu][Dab][Dab]T; lactam 4-C)', 'Minimum inhibitory concentration', '0.5 µg/mL');

src = patent US11225505B2
